Consider the following sequences and their measured Tm readings.
Assay: melting temperature; fluorescence melt of hairpins on a sequencing array, two-state fit, raised by 9.35 °C to match UV melts
Details: sodium 0.088 M

SEQUENCE_CHAIN: GTAGCTGCGAAAGCATAC (((..(((....))))))
Tm (°C): 31.3
//
SEQUENCE_CHAIN: GCAACCGAAAGGTCTGC ((((((....))).)))
Tm (°C): 47.6
//
SEQUENCE_CHAIN: GTACCAGGAAACCGGTAC (((((.(....).)))))
Tm (°C): 46.9
//
SEQUENCE_CHAIN: GCGTTGCGAAAGCAGAGC ((..(((....)))..))
Tm (°C): 63.4
//
SEQUENCE_CHAIN: GTAGTGGGAAACCACCAC ((.((((....)))).))
Tm (°C): 33.5
//
SEQUENCE_CHAIN: GTCCAGGGAAACCTAGAC (((.(((....))).)))
Tm (°C): 33.3
//
SEQUENCE_CHAIN: GTGATTTCGAAAGAACAC (((..(((....))))))
Tm (°C): 31.3
//
SEQUENCE_CHAIN: GGTTGAGGAAACCCAACC (((((.(....).)))))
Tm (°C): 45.2
//
SEQUENCE_CHAIN: CGTGCGGAAACGCCTACG ((((((....)))..)))
Tm (°C): 39.1
//
SEQUENCE_CHAIN: GGCATAGCGAAAGCTGCC (((..(((....))))))
Tm (°C): 59.2
//
SEQUENCE_CHAIN: GCTTCTGAAAAGAAGC ((((((....))))))
Tm (°C): 60
//
SEQUENCE_CHAIN: GTGCGTGCGAAAGCACAC (((..(((....))))))
Tm (°C): 63.5
//
SEQUENCE_CHAIN: GAGCTAGGAAACTAGCCC (.(((((....))))).)
Tm (°C): 40.4
//
SEQUENCE_CHAIN: GTTTTTCGAAAGAACAAC (((.(((....))).)))
Tm (°C): 34.3
//
SEQUENCE_CHAIN: GGTAGCGAAAGCTCACC ((((((....))).)))
Tm (°C): 48.2
//
SEQUENCE_CHAIN: GCCTTTGGAAACAGAGGC ((((.((....)).))))
Tm (°C): 48.2
//
SEQUENCE_CHAIN: GACTAACGAAAGTTTGTC (((.(((....))).)))
Tm (°C): 47
//
SEQUENCE_CHAIN: GAAAGCGAAAGCTGGTTC ((((((....)))..)))
Tm (°C): 29.3
//
SEQUENCE_CHAIN: GTCCCGGGAAACCGGAAC ((.((((....)))).))
Tm (°C): 44.4
//
SEQUENCE_CHAIN: GATGGTGAAAACCATC ((((((....))))))
Tm (°C): 57.8
//
SEQUENCE_CHAIN: GGTTCCGGAAACGGAATC (.(((((....))))).)
Tm (°C): 51.4
//
SEQUENCE_CHAIN: GCTATGCGAAAGCGGAGC (((..((....))..)))
Tm (°C): 53.6
//
SEQUENCE_CHAIN: GCTTCCGGAAACGAAAGC ((((.((....)).))))
Tm (°C): 43
//
SEQUENCE_CHAIN: GACACCGAAAGGTTGTC ((((((....))).)))
Tm (°C): 53.2
//
SEQUENCE_CHAIN: GCGATCATTCGC ((((....))))
Tm (°C): 50.7
//
SEQUENCE_CHAIN: GACCAAGGAAACCTGGTC (((((.(....).)))))
Tm (°C): 47.2
//
SEQUENCE_CHAIN: GATCACTCGTGTGATC ((((((....))))))
Tm (°C): 57.1
//
SEQUENCE_CHAIN: GACTCCGAAAGGAGGGTC ((((((....)))..)))
Tm (°C): 50.8
//
SEQUENCE_CHAIN: GGAGAAGCGAAAGCTTCC (((..(((....))))))
Tm (°C): 42.7
//
SEQUENCE_CHAIN: GAACAGGGAAACCTGCTC ((.((((....)))).))
Tm (°C): 37.1
//
SEQUENCE_CHAIN: GATCGGTCCACCGATC ((((((....))))))
Tm (°C): 60.9
//
SEQUENCE_CHAIN: GATCTCGGGGAGATC ((((((...))))))
Tm (°C): 54.3
//
SEQUENCE_CHAIN: GATCTAGGTTAGATC ((((((...))))))
Tm (°C): 39.2
//
SEQUENCE_CHAIN: GCCTCGCGAAAGCAAGGC ((((.((....)).))))
Tm (°C): 65.1
//
SEQUENCE_CHAIN: GATCGTGCAAACGATC ((((((....))))))
Tm (°C): 66.9
//
SEQUENCE_CHAIN: GGAATGCGAAAGCATCC (((.(((....))))))
Tm (°C): 55.5
//
SEQUENCE_CHAIN: GGCAACGAAAGTTATGCC ((((((....)))..)))
Tm (°C): 46.3
//
SEQUENCE_CHAIN: GCGAACGAAAGTTTTCGC ((((((....)))..)))
Tm (°C): 44.1
//
SEQUENCE_CHAIN: GTTTGGACGAAAGTCAAC (((..(((....))))))
Tm (°C): 34.7
//
SEQUENCE_CHAIN: GATCCAAGTATGGATC ((((((....))))))
Tm (°C): 50.3
//
SEQUENCE_CHAIN: GATCGAACCCTCGATC ((((((....))))))
Tm (°C): 50.2
//
SEQUENCE_CHAIN: GATCGTCATGACGATC ((((((....))))))
Tm (°C): 61.4
//
SEQUENCE_CHAIN: GCCAGTGCGAAAGCAGGC (((..(((....))))))
Tm (°C): 53.7
//
SEQUENCE_CHAIN: GAATTTGGAAACAAGTTC (((.(((....))).)))
Tm (°C): 33.8
//
SEQUENCE_CHAIN: GTGGTTGGAAACGATCAC (((.(.(....).).)))
Tm (°C): 34.1
//
SEQUENCE_CHAIN: GAATAAGCGAAAGCTTTC (((..(((....))))))
Tm (°C): 25.7
//
SEQUENCE_CHAIN: GCCATAGGAAACTGTGGC ((((.((....)).))))
Tm (°C): 52.2
//
SEQUENCE_CHAIN: GTGTTCGAAAGAACTCAC ((((((....)))..)))
Tm (°C): 38.1
//
SEQUENCE_CHAIN: GTGTCAGGAAACCGACAC (((((.(....).)))))
Tm (°C): 49.2
//
SEQUENCE_CHAIN: GCGAGGGTTCGC ((((....))))
Tm (°C): 49.3

Reference source: the array DNA melting data of Ke et al. (doi:10.1101/2024.01.08.574731)
